assay: NCI Yeast Anticancer Drug Screen. Data for the bub3 strain (AID 167); conditions: S. cerevisiae bub3 mutant strain, at 33.0 µM, stronger effect = higher value
Compounds without any hit were thinned out: in the full panel of roughly 79,000, 15% have a hit.
# Lookup of reported growth inhibition keyed by entry

molecule | growth inhibition [%]
CC(/C=C/c1ccc(Cl)cc1)=N\NC(=S)NCC(C)C | 5
CC(=O)OCCOCNC(=S)N/N=C(\C)c1cnccn1 | 51
COC(=O)c1cc(-c2ccc(C)cc2)[nH]c(=O)c1C#N | -2
COc1ccc(N=C2C(=O)Nc3ccc(Br)cc32)cc1 | 2
COCCOC(=O)CCn1cc(F)c(=O)[nH]c1=O | 5
CCc1ncnc2cc(OCC3CO3)c(OC)cc12 (centres undefined) | 12
S=C(Nc1ccc(Cl)c(Cl)c1)SCc1ccc2c(c1)OCO2 | 99
O=C1CSc2cc([N+](=O)[O-])ccc2N1 | 74
N/C(=N\OC(=O)NC(Cl)=C(Cl)Cl)c1cc(C(F)(F)F)cc(C(F)(F)F)c1 | 23
